Biological target: Asp-1 (Homo sapiens)
Sequence (Q9Y5Z0 63-518): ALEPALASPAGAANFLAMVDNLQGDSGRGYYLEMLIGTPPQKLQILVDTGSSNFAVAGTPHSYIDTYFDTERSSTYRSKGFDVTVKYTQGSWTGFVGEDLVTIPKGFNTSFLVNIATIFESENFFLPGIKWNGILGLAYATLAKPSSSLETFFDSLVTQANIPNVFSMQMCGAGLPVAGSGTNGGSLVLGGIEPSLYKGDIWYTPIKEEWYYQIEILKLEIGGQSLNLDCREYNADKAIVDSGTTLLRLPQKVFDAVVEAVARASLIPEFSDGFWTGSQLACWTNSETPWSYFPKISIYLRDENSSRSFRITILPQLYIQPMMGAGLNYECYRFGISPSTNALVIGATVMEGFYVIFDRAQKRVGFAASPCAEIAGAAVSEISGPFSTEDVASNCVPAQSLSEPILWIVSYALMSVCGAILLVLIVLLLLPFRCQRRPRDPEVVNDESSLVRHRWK
Experiment: Asp-1 inhibitory assay (FAM-[SEVNLDAEFK]-TAMRA fluorescence)
Type: biochemical
Settings: Assay (II), 2 h at room temperature, pH 4.5; read-out: inhibition (Asp-1)
parameter.measured: pIC50
Numbers only, as −log10 of the molar value.

Return the recorded pIC50 value; entry: C[C@H](C[C@H](O)[C@H](Cc1ccccc1)NC(=O)c1ccc(S(C)(=O)=O)s1)C(=O)NCCC(C)(C)C [Example E9]
5.48

====

Molecular target: Asp-2 (Homo sapiens)
Sequence (P56817 46-501): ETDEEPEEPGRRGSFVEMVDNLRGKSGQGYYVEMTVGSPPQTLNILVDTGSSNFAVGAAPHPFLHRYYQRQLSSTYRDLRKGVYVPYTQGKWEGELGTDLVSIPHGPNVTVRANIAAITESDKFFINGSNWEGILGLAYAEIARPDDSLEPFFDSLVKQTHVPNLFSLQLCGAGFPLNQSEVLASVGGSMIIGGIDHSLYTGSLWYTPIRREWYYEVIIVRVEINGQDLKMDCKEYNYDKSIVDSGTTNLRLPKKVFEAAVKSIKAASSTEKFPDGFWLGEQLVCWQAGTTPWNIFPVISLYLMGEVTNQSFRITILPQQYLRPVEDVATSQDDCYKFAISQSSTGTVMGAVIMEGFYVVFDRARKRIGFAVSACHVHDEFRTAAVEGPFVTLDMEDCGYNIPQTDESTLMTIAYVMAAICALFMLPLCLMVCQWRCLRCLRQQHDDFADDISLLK
Assay: Asp-2 inhibitory assay (FAM-[SEVNLDAEFK]-TAMRA fluorescence)
Assay type: biochemical
Conditions: Assay (I), 1 h at room temperature, pH 4.5; read-out: Asp-2 IC50
parameter.measured: IC50 (nM)
Numbers only, in nM.

C#CC[C@H](C[C@H](O)[C@H](Cc1ccccc1)NC(=O)c1cccc(S(C)(=O)=O)c1)C(=O)NC1CC2CCC1C2 (some centres unmarked) [Example E2]: 330

Tell me measured IC50 for C[C@H](C[C@H](O)[C@H](Cc1ccccc1)NC(=O)c1cccc(S(C)(=O)=O)c1)C(=O)NCCC(C)(C)C [Example E1] please.
400

====

Target: Asp-1 (Homo sapiens, UniProt Q9Y5Z0)
Sequence (Q9Y5Z0 63-518): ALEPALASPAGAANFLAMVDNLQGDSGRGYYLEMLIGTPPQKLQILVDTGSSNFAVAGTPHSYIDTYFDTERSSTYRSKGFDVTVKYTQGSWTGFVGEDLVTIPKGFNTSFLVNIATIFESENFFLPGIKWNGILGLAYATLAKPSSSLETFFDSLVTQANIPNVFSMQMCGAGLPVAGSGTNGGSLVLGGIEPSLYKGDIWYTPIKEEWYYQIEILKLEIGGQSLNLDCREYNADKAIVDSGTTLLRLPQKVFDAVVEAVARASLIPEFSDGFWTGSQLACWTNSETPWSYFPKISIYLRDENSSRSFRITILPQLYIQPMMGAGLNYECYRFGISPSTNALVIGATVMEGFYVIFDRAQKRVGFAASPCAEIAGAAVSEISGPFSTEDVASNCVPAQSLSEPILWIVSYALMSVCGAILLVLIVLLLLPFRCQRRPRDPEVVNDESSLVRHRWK
Assay: Asp-1 inhibitory assay (FAM-[SEVNLDAEFK]-TAMRA fluorescence)
Type: biochemical
Settings: Assay (II), 2 h at room temperature, pH 4.5; read-out: Asp-1 IC50
parameter.measured: IC50 (µM)
Give bare numbers, in µM.

C#CC[C@H](C[C@H](O)[C@H](Cc1ccccc1)NC(=O)c1cccc(S(C)(=O)=O)c1)C(=O)NC1CC2CCC1C2 (some centres unmarked) [Example E2]: 5.57

Could you now consider this next compound?
Return value of IC50 for input C[C@H](C[C@H](O)[C@H](Cc1ccccc1)NC(=O)c1cccc(S(C)(=O)=O)c1)C(=O)NCCC(C)(C)C [Example E1] , no commentary.
7.7
